Target Or Test System: PKC-α (Homo sapiens, UniProt P17252)
Value Kind: IC50

[ask] GET /values?readout=IC50&system=PKC-α (Homo sapiens, UniProt P17252)&item= O=C1NC(=O)C2=C1c1cn(c3ccccc13)CCO[C@H](CNS(=O)(=O)c1ccccc1)CCn1cc2c2ccccc21 [Example 21s]
[reply] > 5 µM
